B1: PCDHGA10 (parent)
chain: FGIEIEVTDINDNAPKFQAENLDV

- Variants of: B1
- test-name: protein stability index of a GFP-peptide fusion (GPS, HEK-293T) (PSI 1-6); higher = more stable;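 further: lentivirally expressed fusions sorted by FACS into six bins by GFP to DsRed ratio, PSI derived from sequencing read proportions per bin multiplied by bin number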
- test-settings: c terminus: a fixed tail appended
attribute-measured: protein stability index
Give the value as a plain number.

Sample answers from the record:
mutant-label: K16R
protein stability index: 3.02

mutant-label: D9K
protein stability index: 2.45

mutant-label: G2F
protein stability index: 1.86

mutant-label: Q18I
protein stability index: 2.13

Req: Provide only the value of recorded protein stability index for Q18G
Resp: 2.94

The values you see were collected from the supplement of paper PMC10567573.
